Entry source: ChEMBL document CHEMBL5120867

system: A549; assay: Cytotoxicity against human A549 cells assessed as reduction in cell viability by MTT assay; type: functional, cell-based
assay_endpoint: pIC50
For clarity, pIC50 is expressed as the negative log10 of concentration in mol/L.

Requested read-out: pIC50. Entry: COc1ccc2cc1Oc1ccc(cc1)C[C@H]1c3cc(c(OC)cc3CCN1C)Oc1c(OC)c(OC)c(OC)c3c1[C@H](C2)N(C)CC3 [HERNANDEZINE]
5.12

###

system: Hep 3B2; assay: Cytotoxicity against human Hep3B cells assessed as reduction in cell viability by MTT assay; format: functional, cell-based
assay_endpoint: IC50 (µM)
Express it in µM; write the number only.

Requested read-out: IC50. Entry: COc1ccc2cc1Oc1ccc(cc1)C[C@H]1c3cc(c(OC)cc3CCN1C)Oc1c(OC)c(OC)c(OC)c3c1[C@H](C2)N(C)CC3
6.71

###

tested on: A-375; assay: Cytotoxicity against human A-375 cells assessed as reduction in cell viability measured after 24 hrs by MTT assay; assay type: functional, cell-based; details: A-375, 24 h
assay_endpoint: pIC50
For clarity, pIC50 is expressed as the negative log10 of concentration in mol/L.

Requested read-out: pIC50. Entry: COc1ccc2cc1Oc1ccc(cc1)C[C@H]1c3cc(c(OC)cc3CCN1C)Oc1c(OC)c(OC)c(OC)c3c1[C@H](C2)N(C)CC3 [HERNANDEZINE]
5.14
